measurement notes: protein stability index of a GFP-peptide fusion (yeast GPS) (PSI 1-4); higher = more stable; sorted into four equal gates, so the index is relative within each strain
condition info: doa10∆
observation type: protein stability index
Answers are plain numbers.

Would you please look over these solved cases?
# input Which protein stability index value is on record for YDLMAPNGHISTKKIQV [YMR129W/POM152] ?
# output 2.15

# input Param item = AIVPGQSISGTLELSAQ [SWP82] ; retrieve measured protein stability index.
# output 3.43

# input protein stability index lookup needed for IEEKLSSFSKKTLTEEV [YIL149C/MLP2] , thanks.
# output 2.92

Lab note: each sequence below needs its protein stability index filled in.
1. KAHPNFPIALQWTGGRG [FAS1]
2. LESTIAETQGSKVVIDS [IRR1]
3. LFPVAAQDSLTVTIASS [RPB8]
4. AGKADTSIRLEGDELEN [SRB4]
5. PHIIAVACLFITISIHG [SSN8]

# output
[2.62, 2.9, 1.22, 2.67, 1.17]

# batch size: 4; output protein stability index per entry
1. LVHGIFGAKMSRTLILS [SIN4]
2. QTAVTCESCSTILCTPT [RPS27A]
3. SLILKESGSTPISISNA [YAR002W/NUP60]
4. PPPPPPPGYEIEELDNP [PRP8]

# output
1.8
1.93
1.2
2.87

Give protein stability index for each listed item.
1. QSSESFDDSDITKFALF [YML103C/NUP188]
2. GTNNISQHGQGNNPSWV [YDL088C/ASM4]
3. DDEKNDKQARKQRTKKE [SNF2]
4. KEEVCQGMEGTVDLALF [YMR129W/POM152]

# output
1. 2.44
2. 3.01
3. 3.35
4. 3.45

---

measurement notes: protein stability index of a GFP-peptide fusion (yeast GPS) (PSI 1-4); higher = more stable; sorted into four equal gates, so the index is relative within each strain
condition info: pdr5∆
observation type: protein stability index
Numbers only.

# input Query: protein stability index; subject: PTGPKTAIDKNGNITYS [FAS2]
# output 3.08

Please give protein stability index, item by item, for the list that follows.
1. KEAFEEEIKQSARNYDK [SMC1]
2. SQSQQKLLKEKVKLFHG [MED2]
3. VLMERKDERGEGEAKQK [ITC1]
4. EIGLLGGRYVYPVHEAH [SNU114]
5. AIQLDYSTANEYIIAAI [RPN3]
6. PVEKVKEHDEIEEQGDA [DPB4]

# output
[3.09, 3.1, 3.35, 2.55, 2.09, 3.34]

Batch of 4 sequences: report protein stability index for each.
1. MGVRTFSQKEMAFNLLG [FAS2]
2. LPDPILKNFLSYESLKK [MCD1]
3. INSIDTTESSDLKEGLQ [GRR1]
4. QEKESQIQLAESELSLL [SMC4]

# output
[1.9, 3.14, 2.6, 2.95]

---

measurement notes: protein stability index of a GFP-peptide fusion (yeast GPS) (PSI 1-4); higher = more stable; sorted into four equal gates, so the index is relative within each strain
condition info: pdr5∆
Kind request: treat 2 as inclusive, so protein stability index at 2 or higher is 1, anything lower is -1.

# input Would you say LQKEFLPHITQLEGFES [RPB2] shows protein stability index at minimum 2?
# output -1

# input Is protein stability index for MAKSKNHTAHNQTRKAH [RPL29] at or above 2?
# output 1

# input Reported protein stability index at or above 2? ELRYQSHILNSHSLALN [DSN1]
# output 1

# input In plain terms: is recorded protein stability index at least 2 for NIVDSSAAGNKAIPTFS [YIL149C/MLP2] ?
# output 1

# input Test whether the sequence FKAEKLQIVNQLPANMV [RPC17] records protein stability index of 2 or higher.
# output 1

# input // inclusive: protein stability index at least 2? input: VTPEDVMTISSLEQRTL [RPC82]
# output 1

# input Say whether EEGEYKNAANTEGHKGH [ISW2] shows protein stability index of 2 or more.
# output 1

# input Does the sequence VSITPGKIEKIAQSKKK [SRP21] have recorded protein stability index that is 2 or more?
# output -1

# input Form field: protein stability index at least 2? Entry: DVPAYNVTSFMPFWKFF [SRB8]
# output -1

---

measurement notes: protein stability index of a GFP-peptide fusion (yeast GPS) (PSI 1-4); higher = more stable; sorted into four equal gates, so the index is relative within each strain
condition info: san1∆
observation type: protein stability index
One number for each entry.

# input Quick one: protein stability index for KAALERLKVFEGIPPPY [RPL16A] ?
# output 3.09

# input Field request: protein stability index | item: DDVRDFVIRREVTKGEK [RPS6A]
# output 3.08

# input Suppose we examine the sequence VGPHFKQANNFLWPFKL [RPL7A] ; what protein stability index value has been reported?
# output 2.97

Here are 4 sequences. What values of protein stability index were reported for them?
1. SHDASRSLASFEQTAFS [SIR4]
2. SRGFEVMYNGHTGKKLM [RPB2]
3. AVLSYYKVDAEGKVTKL [RPS31]
4. DKQAEGTPLFTFGKKAD [YOR098C/NUP1]

# output
1. 2.81
2. 2.71
3. 3.03
4. 2.5

---

measurement notes: protein stability index of a GFP-peptide fusion (yeast GPS) (PSI 1-4); higher = more stable; sorted into four equal gates, so the index is relative within each strain
condition info: doa10∆
I'd be grateful if you could share measured protein stability index for these entries.
Answers are plain numbers.

Before answering, review these 3 worked examples.
# input Fill in: protein stability index of LLRLASKSTSMKLSMPP [POP1] is ___
# output 2.75

# input So what does the record say about protein stability index for PGSVEEVDKSKLITTYI [YDL116W/NUP84] ?
# output 3.39

# input May I ask what protein stability index has been recorded for DVKLLNPIDIKRRFGEL [RPP1] ?
# output 2.46

Count: 2. Required value per item: protein stability index.
1. FGVSFIYAGYDDRYGYQ [PRE9]
2. KSSDSNDSNPSFSFSIP [YLR335W/NUP2]

# output
[2.33, 2.62]

---

measurement notes: protein stability index of a GFP-peptide fusion (yeast GPS) (PSI 1-4); higher = more stable; sorted into four equal gates, so the index is relative within each strain
condition info: pdr5∆
Record condition met whenever protein stability index is at 3 or higher; record condition not met when lower.

# input Say whether PRRDGERKRKSVRGAIV [RPS6A] shows protein stability index of 3 or more.
# output condition met

# input Given GLGETSGDNHTQQSHEQ [RPT4] , state whether its protein stability index is at least 3.
# output condition met

# input Kindly determine if protein stability index recorded for LAVSTILGKNFDSVIVE [SMC1] is above or exactly 3.
# output condition not met

# input Does the sequence LMTFNAETKSYDSRGVG [YLR335W/NUP2] have recorded protein stability index that is 3 or more?
# output condition not met

# input Textbook exercise: given the entry CEINYYEILLKILITYG [SRB8] , state whether its protein stability index is greater than or equal to 3.
# output condition not met

# input Hi team, for ALNMLPSEILHLILDKL [GRR1] , is the recorded protein stability index at or above 3?
# output condition not met

# input Could you verify whether the entry EVSALVRSLPKEEQPKQ [PRP8] shows protein stability index of no less than 3?
# output condition not met

# input Is it the case that NQASTSKRVYKILSPTM [CDC53] has protein stability index reaching or exceeding 3?
# output condition not met

More entries:
# input Exam item: decide whether the reported protein stability index for FKAIHGSQLRLSEWEEY [YCS4] is at least 3.
# output condition not met

# input Would you say TNRHTLALETVLIKMVK [SIR3] shows protein stability index at minimum 3?
# output condition not met

---

measurement notes: protein stability index of a GFP-peptide fusion (yeast GPS) (PSI 1-4); higher = more stable; sorted into four equal gates, so the index is relative within each strain
condition info: san1∆
Provide the recorded protein stability index for the entries that follow.
One number for each entry.

Below: 2 sequences and their reported protein stability index.
# input For TEHVRQNAKLLANLIRD [RRP6] , what is its reported protein stability index?
# output 2.39

# input Recorded protein stability index for TRAKIGGLNDPRLGSID [RPO21] , please?
# output 2.58

Let us examine a further case.
# input Endpoint output: protein stability index of AFVSVYSKNNPNLLFSM [PRP8] . Value?
# output 2.61

---

measurement notes: protein stability index of a GFP-peptide fusion (yeast GPS) (PSI 1-4); higher = more stable; sorted into four equal gates, so the index is relative within each strain
condition info: doa10∆
observation type: protein stability index
Numbers only.

# input Which measured protein stability index value corresponds to SPFGAYGEAPTSPGFGV [RPO21] ?
# output 2.87

# input Report protein stability index for RVGVVSILEAGDSDILT [RPL30] please.
# output 3.1

# input Data request, read-out protein stability index, for QIIVTDGKLEPSTRSNF [YJL039C/NUP192]
# output 2.38

# input What value of measured protein stability index is listed for NAYGFIEWCSRCNDNLM [YJL039C/NUP192] ?
# output 3

# input Which measured protein stability index value corresponds to KLTVCFDDILKVGAEMM [MED2] ?
# output 1.97

# map each sequence to its protein stability index
1. GVEQLHYTGISQSACRE [SSN3]
2. TDEALFENVKLLAEYDN [MED4]
3. LKSSLADVLSILAMTYS [RPN1]
4. AGGQRIVDDYWESLAKK [SWP82]

# output
1. 2.69
2. 3.02
3. 1.7
4. 1.84

Each of the following entries comes with a recorded value; kindly state protein stability index for each.
1. IIRQLSELNEGNLSKRE [SRB8]
2. LKNLRKKLNFKLCQAFM [YJR042W/NUP85]
3. TFGKKADVTSNIDSSAQ [YOR098C/NUP1]

# output
1. 3.18
2. 2.19
3. 2.09
